The measured values listed here are drawn from ChEMBL document CHEMBL1131087.

- Tested on: Rattus norvegicus
- assay protocol: Inhibition of paw swelling relative to the tebufelone in rat. Value was reported as Carrageenan paw edema index
- Format: functional
For each of the compounds below, state its CPE index.
One number for each entry.

Quick batch: CPE index for everything below.
1. CC(C)(C)c1cc(C(=O)NCCO)cc2c1OCC2(C)C
2. CC(=O)Nc1cc(C(C)(C)C)c2c(c1)C(C)(C)CO2

Response:
1: 0.33; 2: 0.66

Quick batch: CPE index for everything below.
1. CC(C)(C)c1cc(C(=O)Nc2ccccc2)cc2c1OCC2(C)C
2. CC(C)(C)c1cc(Nc2ccccc2C(=O)O)cc2c1OCC2(C)C
3. CC(C)(C)c1cc(C(=O)c2ccsc2)cc2c1OCC2(C)C
4. Cn1cccc1C(=O)c1cc(C(C)(C)C)c2c(c1)C(C)(C)CO2
5. CCN(C(=O)c1cc(C(C)(C)C)c2c(c1)C(C)(C)CO2)C1CC1

Response:
1: 0.01; 2: 0.78; 3: 0.62; 4: 1.24; 5: 1.14
